- ASSAY SYSTEM: Prostaglandin G/H synthase 1 (Ovis aries)
- Sequence (P05979 whole entry): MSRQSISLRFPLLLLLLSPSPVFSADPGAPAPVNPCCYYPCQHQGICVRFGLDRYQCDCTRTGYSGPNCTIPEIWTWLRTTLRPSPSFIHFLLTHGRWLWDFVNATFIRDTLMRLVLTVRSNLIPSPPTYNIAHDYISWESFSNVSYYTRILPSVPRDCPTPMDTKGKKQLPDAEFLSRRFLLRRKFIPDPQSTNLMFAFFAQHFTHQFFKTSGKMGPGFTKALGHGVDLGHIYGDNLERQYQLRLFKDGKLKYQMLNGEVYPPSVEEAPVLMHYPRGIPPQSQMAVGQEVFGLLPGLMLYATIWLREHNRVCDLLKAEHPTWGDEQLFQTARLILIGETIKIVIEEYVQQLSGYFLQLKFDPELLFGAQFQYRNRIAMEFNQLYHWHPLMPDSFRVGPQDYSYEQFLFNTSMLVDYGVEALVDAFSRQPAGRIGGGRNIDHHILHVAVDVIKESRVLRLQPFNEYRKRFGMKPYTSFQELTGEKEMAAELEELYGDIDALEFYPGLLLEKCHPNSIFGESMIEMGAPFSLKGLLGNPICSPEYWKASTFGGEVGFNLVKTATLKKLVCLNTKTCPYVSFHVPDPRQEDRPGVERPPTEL
pIC50 listing for selected molecules.
Reminder that pIC50 is minus the log10 of a molar concentration.

Worked examples, 2 molecules total:
Reported pIC50 of O=c1nc(-c2ccccc2)c(-c2ccccc2)nn1Cc1nnc(Nc2ccc(Cl)cc2)s1 : 4.21

Reported pIC50 of COc1ccc(Nc2nnc(Cn3nc(-c4ccccc4)c(-c4ccccc4)nc3=O)s2)cc1 : 4.22

# next molecule below
Reported pIC50 of O=c1nc(-c2ccccc2)c(-c2ccccc2)nn1Cc1nnc(Nc2ccc([N+](=O)[O-])cc2)o1 : 4.20

All values here come from BindingDB's records for doi:10.1016/j.bioorg.2016.10.003.
